Assay: reversal of MRP1-mediated doxorubicin resistance, pilot screen, H69AR cells, doxorubicin co-treatment (AID 601)
Conditions: H69AR cells + 2 uM doxorubicin, CellTiter-Glo, 72 h; at 10 µM
Active and inactive are the calls of the source.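 The calls were made as follows: active = viability loss from added drug above about 55%, and viability with drug at most 40%, in both replicates (limit read from the data, passing the limit was not always enough); inconclusive = both conditions met in only one replicate; inactive = neither replicate meets both conditions.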
Please reply with one of these outcomes: active, inactive

molecule	category
O=c1c2cc(N3CCOCC3)ccc2[nH]c(=S)n1CCCN1CCCC1	inactive
COc1ccc(CCNC(=O)C2CC(=O)N(c3ccccc3)C2)cc1OC (configuration not stated)	inactive

For this molecule, state the assay outcome: CC(=O)c1cccc(S(=O)(=O)N2CCC(n3nnc4cc(F)ccc43)CC2)c1
inactive

Hi team, can someone confirm the assay call for Cc1cc(C)n(-c2nc3ccccc3c(=O)n2OCCOc2ccccc2)n1 ?
inactive

// return assay outcome for Cc1cc(C(=O)CSc2nnc(-c3ccco3)o2)c(C)n1CC1COc2ccccc2O1 (configuration not stated)
inactive

What outcome does the record of this test show for CCNC(=O)C1CC(=O)N(Cc2ccc3c(c2)OCO3)C(=Nc2ccc(F)cc2)S1 (configuration not stated) ?
inactive

Status in this test for Cc1cccc(C)c1OCc1nnc2c3cnn(C)c3ncn12 ?
inactive

Could you kindly confirm the outcome this assay logged for CCOC(=O)N1CCN(C(=O)CSc2nnc(-c3cc(OC)cc(OC)c3)o2)CC1 ?
inactive

// outcome(item) with item = CCOC(=O)c1ccccc1NC(=O)c1cc2sccc2n1C
inactive

Which outcome was entered for the molecule CC1(C)NC(=O)N(CC(O)CN(Cc2ccccc2)Cc2ccccc2)C1=O (configuration not stated) in this test?
inactive

Hey, what did the test say about COc1ccc(-c2nnc(SCC(=O)NC(=O)NCc3ccco3)o2)cc1 ?
inactive

Which outcome was entered for the molecule C=CCOc1nc2c(c(=O)n(C)c(=O)n2C)n1Cc1c(Cl)cccc1Cl in this test?
active

GET /call?item= O=C(Nc1ccc2c(c1)OCO2)C(c1ccc(Cl)cc1)N1CCN(C(=O)c2ccco2)CC1 (configuration not stated) returns the recorded outcome of this test.
inactive

Value source: PubChem BioAssay
